# Measured on: human KLB and human FGFR1c co-expressed on HEK293/hKLB/hFGFR1c/SRE-luc cells (human, UniProt Q86Z14 1-1044; P11362 22-822)
# Sequence (Q86Z14 whole entry, chain 1 of 2): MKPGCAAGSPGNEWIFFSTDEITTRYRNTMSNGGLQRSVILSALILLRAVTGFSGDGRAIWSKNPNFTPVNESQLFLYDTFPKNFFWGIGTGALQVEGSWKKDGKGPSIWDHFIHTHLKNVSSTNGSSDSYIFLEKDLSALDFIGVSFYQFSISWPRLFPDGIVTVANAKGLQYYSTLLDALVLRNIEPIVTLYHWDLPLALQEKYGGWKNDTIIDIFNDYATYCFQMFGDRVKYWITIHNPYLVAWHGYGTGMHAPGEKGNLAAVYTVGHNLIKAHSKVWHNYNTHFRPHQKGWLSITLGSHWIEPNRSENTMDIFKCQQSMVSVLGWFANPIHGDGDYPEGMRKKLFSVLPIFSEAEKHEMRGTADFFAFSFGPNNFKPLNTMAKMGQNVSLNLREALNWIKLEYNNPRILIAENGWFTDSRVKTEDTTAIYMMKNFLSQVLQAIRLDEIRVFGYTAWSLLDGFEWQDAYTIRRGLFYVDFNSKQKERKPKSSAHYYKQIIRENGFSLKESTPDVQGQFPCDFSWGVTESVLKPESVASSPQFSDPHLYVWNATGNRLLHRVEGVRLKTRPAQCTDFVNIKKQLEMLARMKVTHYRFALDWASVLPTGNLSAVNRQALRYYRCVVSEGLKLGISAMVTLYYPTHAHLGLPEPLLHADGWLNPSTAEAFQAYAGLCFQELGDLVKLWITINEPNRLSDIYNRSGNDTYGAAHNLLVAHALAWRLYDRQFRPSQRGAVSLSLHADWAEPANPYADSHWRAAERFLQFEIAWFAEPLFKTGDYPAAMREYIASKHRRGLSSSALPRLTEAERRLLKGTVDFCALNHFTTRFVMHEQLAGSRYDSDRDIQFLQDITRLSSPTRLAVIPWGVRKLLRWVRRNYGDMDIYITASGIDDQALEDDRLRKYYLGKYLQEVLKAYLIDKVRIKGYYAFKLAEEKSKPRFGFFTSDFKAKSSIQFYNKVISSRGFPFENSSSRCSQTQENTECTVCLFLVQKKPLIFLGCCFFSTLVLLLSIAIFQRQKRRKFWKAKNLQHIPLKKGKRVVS
# Sequence (P11362 other isoform, or with tags, fused parts or gaps limits assumed, chain 2 of 2): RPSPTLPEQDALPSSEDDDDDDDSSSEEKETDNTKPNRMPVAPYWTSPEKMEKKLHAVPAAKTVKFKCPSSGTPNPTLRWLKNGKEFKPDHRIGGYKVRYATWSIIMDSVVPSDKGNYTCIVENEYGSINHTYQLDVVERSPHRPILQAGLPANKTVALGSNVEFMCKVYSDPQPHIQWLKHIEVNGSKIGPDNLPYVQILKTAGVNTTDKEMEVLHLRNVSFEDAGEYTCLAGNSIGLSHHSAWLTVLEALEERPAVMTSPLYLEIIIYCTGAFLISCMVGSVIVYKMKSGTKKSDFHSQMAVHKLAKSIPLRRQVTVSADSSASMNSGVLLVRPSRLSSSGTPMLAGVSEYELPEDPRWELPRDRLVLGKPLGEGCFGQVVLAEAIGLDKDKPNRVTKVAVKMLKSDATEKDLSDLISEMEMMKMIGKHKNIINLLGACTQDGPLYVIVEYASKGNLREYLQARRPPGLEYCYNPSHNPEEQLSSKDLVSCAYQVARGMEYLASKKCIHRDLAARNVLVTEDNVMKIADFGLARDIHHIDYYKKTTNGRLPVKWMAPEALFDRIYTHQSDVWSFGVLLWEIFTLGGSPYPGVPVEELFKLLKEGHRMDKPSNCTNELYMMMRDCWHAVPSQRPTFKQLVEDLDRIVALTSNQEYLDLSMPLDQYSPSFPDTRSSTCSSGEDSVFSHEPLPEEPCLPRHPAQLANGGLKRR
# Experiment summary: cell-based or functional assay
Value kind: Maximum Activation (%) without ligand

INSERT INTO assay_data (binder, value_kind, endpoint_result) VALUES
  ('H4H8881P (antibody, V domains shown, human IgG4 Fc (H4H prefix)) VH: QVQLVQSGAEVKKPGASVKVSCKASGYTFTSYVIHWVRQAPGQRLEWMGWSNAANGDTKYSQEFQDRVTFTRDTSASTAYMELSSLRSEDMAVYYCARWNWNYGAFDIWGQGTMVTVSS VL: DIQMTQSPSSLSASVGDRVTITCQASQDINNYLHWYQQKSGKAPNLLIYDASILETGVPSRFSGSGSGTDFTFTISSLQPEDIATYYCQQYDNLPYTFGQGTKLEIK', 'Maximum Activation (%) without ligand', 7),
  ('H4H8878P (antibody, V domains shown, human IgG4 Fc (H4H prefix)) VH: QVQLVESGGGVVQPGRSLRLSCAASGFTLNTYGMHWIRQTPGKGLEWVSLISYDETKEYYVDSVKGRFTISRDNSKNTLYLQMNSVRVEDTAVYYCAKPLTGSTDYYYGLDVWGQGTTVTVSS VL: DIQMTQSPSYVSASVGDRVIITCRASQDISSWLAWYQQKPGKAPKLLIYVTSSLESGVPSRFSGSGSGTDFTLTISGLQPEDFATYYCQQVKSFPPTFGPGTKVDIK', 'Maximum Activation (%) without ligand', 1);
